# Tested on: HLE (Hepatocellular Carcinoma)
# assay.details: Bliss excess, mean over the matrix (fraction); higher = more synergy
reported.endpoint: Bliss excess

# compound, Bliss excess
records = [
    ("CC1(C)CCC(CN2CCN(c3ccc(C(=O)NS(=O)(=O)c4ccc(NCC5CCOCC5)c([N+](=O)[O-])c4)c(Oc4cnc5[nH]ccc5c4)c3)CC2)=C(c2ccc(Cl)cc2)C1 [Venetoclax] + C=CCn1c(=O)c2cnc(Nc3ccc(N4CCN(C)CC4)cc3)nc2n1-c1cccc(C(C)(C)O)n1 [AZD1775] (first compound max 1 µM, partner max 1 µM)", -0.0648),
]

IN: Please give the documented Bliss excess of C[C@@H](Oc1cc(-c2cnn(C3CCNCC3)c2)cnc1N)c1c(Cl)ccc(F)c1Cl [Crizotinib] + CC1=C(C(=CC=C1)Cl)NC(=O)C2=CN=C(S2)NC3=CC(=NC(=N3)C)N4CCN(CC4)CCO [Dasatinib] (first compound max 10 µM, 7x7, partner max 2 µM)
OUT: 0.0195

IN: Please give the documented Bliss excess of CN(C)CCCOc1ccc(-c2ccc3ncc4c(c3c2)n(C2CCOCC2)c(=O)n4C)cn1 [AZD0156] + C[C@@H]1COCCN1C2=NC(=NC(=C2)C3(CC3)[S@](=N)(=O)C)C4=C5C=CNC5=NC=C4 [AZD6738] (first compound max 1 µM, 7x7, partner max 10 µM)
OUT: 0.0261

---

# Test system: SKN-3 (Head and Neck Carcinoma)
# assay.details: Bliss excess, mean over the matrix (fraction); higher = more synergy
Quick reference: Bliss excess of the listed items.

# compound, Bliss excess
data = [
    ("Cn1cnc2c(F)c(Nc3ccc(Br)cc3Cl)c(C(=O)NOCCO)cc21 [Selumetinib] + CCN(CCO)CCCOc1ccc2c(Nc3cc(CC(=O)Nc4cccc(F)c4)[nH]n3)ncnc2c1 [AZD2811] (first compound max 10 µM, 7x7, partner max 1 µM)", -0.0166),
    ("Cc1c2c(nn1C)CSCc1cc(n(C)n1)CSc1cc(c3ccccc3c1)OCCCc1c(C(=O)O)n(C)c3c-2c(Cl)ccc13 [AZD5991] + C1CN(CCC1(C(=O)N[C@@H](CCO)C2=CC=C(C=C2)Cl)N)C3=NC=NC4=C3C=CN4 [Capivasertib] (first compound max 1 µM, 7x7, partner max 3 µM)", -0.0285),
]

IN: Please give the documented Bliss excess of COc1cccc(OCCCN)c1-c1cc(Nc2cnc(C#N)cn2)n[nH]1 [Prexasertib] + CN(C)CCCOc1ccc(-c2ccc3ncc4c(c3c2)n(C2CCOCC2)c(=O)n4C)cn1 [AZD0156] (first compound max 1 µM, 7x7, partner max 1 µM)
OUT: 0.011

IN: Please give the documented Bliss excess of CC1(C)CCC(CN2CCN(c3ccc(C(=O)NS(=O)(=O)c4ccc(NCC5CCOCC5)c([N+](=O)[O-])c4)c(Oc4cnc5[nH]ccc5c4)c3)CC2)=C(c2ccc(Cl)cc2)C1 [Venetoclax] + Cc1cc2ncnn2cc1Nc1ncc2c(n1)n(C1CCOCC1)c(=O)n2C [AZD7648] (first compound max 1 µM, 7x7, partner max 10 µM)
OUT: -0.0193

---

# Tested on: ETK-1 (Biliary Tract Carcinoma)
# assay.details: combination Emax (second highest fraction inhibited in the dose matrix, 72 h); higher = more inhibition; extreme values may be limits of the assay
Label n if combination Emax falls below 0.5; label y in every other case.

Worked examples follow.
# compound, label
data = [
    ("COc1nnc2ccc(N3CCC(c4ccc(OCCN5CCN(C)C(=O)[C@H]5C)cc4)CC3)nn12 [AZD5153] + C=CCn1c(=O)c2cnc(Nc3ccc(N4CCN(C)CC4)cc3)nc2n1-c1cccc(C(C)(C)O)n1 [AZD1775] (first compound max 1 µM, partner max 1 µM)", "y"),
    ("CN(CCO)CC[C@H](CSc1ccccc1)Nc1ccc(S(=O)(=O)NC(=O)c2ccc(N3CCC([C@@H](O)c4ccccc4-c4ccc(Cl)cc4)CC3)cc2)cc1S(=O)(=O)C(F)(F)F [AZD4320] + CCN(CCO)CCCOc1ccc2c(Nc3cc(CC(=O)Nc4cccc(F)c4)[nH]n3)ncnc2c1 [AZD2811] (first compound max 1 µM, 7x7, partner max 1 µM)", "n"),
    ("Cc1c2c(nn1C)CSCc1cc(n(C)n1)CSc1cc(c3ccccc3c1)OCCCc1c(C(=O)O)n(C)c3c-2c(Cl)ccc13 [AZD5991] + Cc1cc2ncnn2cc1Nc1ncc2c(n1)n(C1CCOCC1)c(=O)n2C [AZD7648] (first compound max 1 µM, 7x7, partner max 10 µM)", "n"),
    ("NC1(C(=O)N[C@@H](CCO)c2ccc(Cl)cc2)CCN(c2ncnc3[nH]ccc23)CC1 [Capivasertib] + C[C@@H]1COCCN1C2=NC(=NC(=C2)C3(CC3)[S@](=N)(=O)C)C4=C5C=CNC5=NC=C4 [AZD6738] (first compound max 10 µM, 7x7, partner max 10 µM)", "y"),
    ("CC1(C)CCC(CN2CCN(c3ccc(C(=O)NS(=O)(=O)c4ccc(NCC5CCOCC5)c([N+](=O)[O-])c4)c(Oc4cnc5[nH]ccc5c4)c3)CC2)=C(c2ccc(Cl)cc2)C1 [Venetoclax] + CCN(CCO)CCCOc1ccc2c(Nc3cc(CC(=O)Nc4cccc(F)c4)[nH]n3)ncnc2c1 [AZD2811] (first compound max 1 µM, 7x7, partner max 1 µM)", "n"),
]

IN: Could you tell me if the measured combination Emax of Cc1cc2ncnn2cc1Nc1ncc2c(n1)n(C1CCOCC1)c(=O)n2C [AZD7648] + CCN(CCO)CCCOc1ccc2c(Nc3cc(CC(=O)Nc4cccc(F)c4)[nH]n3)ncnc2c1 [AZD2811] (first compound max 10 µM, 7x7, partner max 1 µM) reaches 0.5 or more?
OUT: n

IN: Could you tell me if the measured combination Emax of CN(C)CCCOc1ccc(-c2ccc3ncc4c(c3c2)n(C2CCOCC2)c(=O)n4C)cn1 [AZD0156] + C=CCn1c(=O)c2cnc(Nc3ccc(N4CCN(C)CC4)cc3)nc2n1-c1cccc(C(C)(C)O)n1 [AZD1775] (first compound max 1 µM, partner max 1 µM) reaches 0.5 or more?
OUT: y
